For each record, write down the corresponding Kd.
- test_details: Binding affinity to HIV1 full length gp120 by isothermal titration calorimetric assay
- Parameters: species or system Human immunodeficiency virus 1

N=C(N)N[C@@H]1Cc2ccccc2[C@H]1NC(=O)C(=O)Nc1ccc(Cl)c(F)c1.O=CO | 300 nM
N=C(N)NCC[C@H]1Cc2ccccc2[C@@H]1NC(=O)C(=O)Nc1ccc(Cl)c(F)c1.O=CO | 340 nM
N=C(N)NCC[C@@H]1Cc2ccccc2[C@H]1NC(=O)C(=O)Nc1ccc(Cl)c(F)c1.O=CO | 2000 nM
N=C(N)NC[C@H]1Cc2ccccc2[C@@H]1NC(=O)C(=O)Nc1ccc(Cl)c(F)c1.O=CO | 110 nM
N=C(N)NC[C@@H]1Cc2ccccc2[C@H]1NC(=O)C(=O)Nc1ccc(Cl)c(F)c1.O=CO | 6200 nM

Could you now consider this next compound?
Task: I have this compound here, N=C(N)N[C@H]1Cc2ccccc2[C@@H]1NC(=O)C(=O)Nc1ccc(Cl)c(F)c1.O=CO , and I need its recorded Kd.
Output: 250 nM

* * *

For each record, write down the corresponding fold change (FC).
- Tested on: Human immunodeficiency virus 1
- test_details: Activation of HIV1 isolate YU2 infectivity in CD4 negative dog CF2Th cells expressing CCR5 by luciferase reporter gene assay relative to NBD556
- Type: organism-based
- condition: human immunodeficiency virus 1, cf2th
Give bare numbers.

Look at each compound and report its fold change (FC).
1. N=C(N)NCC[C@@H]1Cc2ccccc2[C@H]1NC(=O)C(=O)Nc1ccc(Cl)c(F)c1.O=CO
2. N=C(N)NC[C@@H]1Cc2ccccc2[C@H]1NC(=O)C(=O)Nc1ccc(Cl)c(F)c1.O=CO
3. N=C(N)NCC[C@H]1Cc2ccccc2[C@@H]1NC(=O)C(=O)Nc1ccc(Cl)c(F)c1.O=CO
4. N=C(N)NC[C@H]1Cc2ccccc2[C@@H]1NC(=O)C(=O)Nc1ccc(Cl)c(F)c1.O=CO

Output:
1: 0; 2: 0.11; 3: 0.17; 4: 0
